The measured values listed here are drawn from ChEMBL document CHEMBL4425101.

Biological target: SPRY domain-containing SOCS box protein 2 (Mus musculus)
Assay: Binding affinity to mouse 5-F-Trp-SPSB2 assessed as downward shift of Trp207 residue resonance at protein to compound molar ratio of 1:5 by 19F-NMR spectroscopy
Activity calls are given as the source filed them. The calls are words filed in the database; no cut-off is given here. Where a SMILES comes first, the peptide text is derived from it. Bridges are numbered along the chain shown (N, C = ends).
Outcomes: active, inactive

INSERT INTO assay_data (molecule, target_or_test_system, label) VALUES
  ('CC[C@@H](C)[C@@H]1NC(=O)[C@H](CC(=O)O)OCCNC(=O)[C@@H](CC(N)=O)NC(=O)[C@@H](CC(N)=O)NC(=O)[C@@H](CC(N)=O)NC1=O', 'SPRY domain-containing SOCS box protein 2 (Mus musculus)', 'inactive'),
  ('CC[C@H](C)[C@@H]1NC(=O)[C@@H](CC(=O)O)OCc2ccccc2NC(=O)[C@H](CC(N)=O)NC(=O)[C@H](CC(N)=O)NC(=O)[C@@H](CC(N)=O)NC1=O', 'SPRY domain-containing SOCS box protein 2 (Mus musculus)', 'active'),
  ('CC[C@H](C)[C@@H]1NC(=O)[C@@H](CC(=O)O)NC(=O)c2ccccc2NC(=O)[C@H](CC(N)=O)NC(=O)[C@H](CC(N)=O)NC(=O)[C@@H](CC(N)=O)NC1=O', 'SPRY domain-containing SOCS box protein 2 (Mus musculus)', 'active'),
  ('CC[C@H](C)[C@@H]1NC(=O)[C@H](CC(=O)O)NC(=O)[C@H](C(C)C)NC(=O)[C@@H](NC(C)=O)CSSC[C@@H](C(N)=O)NC(=O)[C@H](CC(N)=O)NC(=O)[C@H](CC(N)=O)NC(=O)[C@H](CC(N)=O)NC1=O (Ac-CVDINNNC-NH2; disulfide 1-8)', 'SPRY domain-containing SOCS box protein 2 (Mus musculus)', 'active'),
  ('CC[C@H](C)[C@@H]1NC(=O)[C@@H](CC(=O)O)OCC(=O)N(C)NC(=O)[C@H](CC(N)=O)NC(=O)[C@H](CC(N)=O)NC(=O)[C@@H](CC(N)=O)NC1=O', 'SPRY domain-containing SOCS box protein 2 (Mus musculus)', 'active');

* * *

Biological target: SPRY domain-containing SOCS box protein 2 (Mus musculus, UniProt O88838)
Sequence (O88838 whole entry, the tested form may be a part): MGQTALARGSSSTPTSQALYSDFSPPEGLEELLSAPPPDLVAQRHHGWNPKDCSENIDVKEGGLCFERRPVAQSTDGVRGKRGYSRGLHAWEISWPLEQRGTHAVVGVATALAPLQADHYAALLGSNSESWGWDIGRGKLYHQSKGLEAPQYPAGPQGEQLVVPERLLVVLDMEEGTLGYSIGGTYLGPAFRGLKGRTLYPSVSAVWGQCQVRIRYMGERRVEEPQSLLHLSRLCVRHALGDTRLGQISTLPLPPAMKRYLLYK
Experiment: Binding affinity to recombinant GST-tagged mouse SPSB2 (12 to 224 residues) expressed in Escherichia coli BL21 (DE3) by ITC method
Readout type: Kd (µM)

INSERT INTO results (smiles_notation, value) VALUES
  ('CC[C@H](C)[C@@H]1NC(=O)[C@@H](CC(=O)O)OCC(=O)N(C)NC(=O)[C@H](CC(N)=O)NC(=O)[C@H](CC(N)=O)NC(=O)[C@H](CC(N)=O)NC1=O', 0.083),
  ('CC[C@H](C)[C@@H]1NC(=O)[C@H](CC(=O)O)OCCNC(=O)[C@H](CC(N)=O)NC(=O)[C@H](CC(N)=O)NC(=O)[C@H](CC(N)=O)NC1=O', 0.442),
  ('CC[C@H](C)[C@@H]1NC(=O)[C@@H](CC(=O)O)OCc2ccccc2NC(=O)[C@H](CC(N)=O)NC(=O)[C@H](CC(N)=O)NC(=O)[C@H](CC(N)=O)NC1=O', 0.045),
  ('CC[C@H](C)[C@@H]1NC(=O)[C@H](CC(=O)O)NC(=O)c2ccccc2NC(=O)[C@H](CC(N)=O)NC(=O)[C@H](CC(N)=O)NC(=O)[C@H](CC(N)=O)NC1=O', 0.049);

* * *

Entries and their K values follow.
Molecular target: SPRY domain-containing SOCS box protein 2 (Mus musculus) (UniProt O88838)
Sequence (O88838 whole entry, the tested form may be a part): as above
Assay: Binding affinity to recombinant GST-tagged mouse SPSB2 (12 to 224 residues) expressed in Escherichia coli BL21 (DE3) assessed as dissociation rate by SPR analysis
Readout type: K (×10⁻² /s)

INSERT INTO assay_data (smiles_notation, unit_string, value) VALUES
  ('CC[C@H](C)[C@@H]1NC(=O)[C@@H](CC(=O)O)OCc2ccccc2NC(=O)[C@H](CC(N)=O)NC(=O)[C@H](CC(N)=O)NC(=O)[C@@H](CC(N)=O)NC1=O', '×10⁻² /s', 2),
  ('CC[C@@H](C)[C@@H]1NC(=O)[C@H](CC(=O)O)OCCNC(=O)[C@@H](CC(N)=O)NC(=O)[C@@H](CC(N)=O)NC(=O)[C@@H](CC(N)=O)NC1=O', '×10⁻² /s', 26),
  ('CC[C@H](C)[C@@H]1NC(=O)[C@@H](CC(=O)O)NC(=O)c2ccccc2NC(=O)[C@H](CC(N)=O)NC(=O)[C@H](CC(N)=O)NC(=O)[C@@H](CC(N)=O)NC1=O', '×10⁻² /s', 6),
  ('CC[C@H](C)[C@@H]1NC(=O)[C@@H](CC(=O)O)OCC(=O)N(C)NC(=O)[C@H](CC(N)=O)NC(=O)[C@H](CC(N)=O)NC(=O)[C@@H](CC(N)=O)NC1=O', '×10⁻² /s', 8);

* * *

Target: SPRY domain-containing SOCS box protein 2 (Mus musculus)
Assay: Binding affinity to recombinant GST-tagged mouse SPSB2 (12 to 224 residues) expressed in Escherichia coli BL21 (DE3) by ITC method
Readout type: Kd

INSERT INTO measurements (substance, readout_type, value) VALUES
  ('H-KEEKDINNNVKKT-OH', 'Kd', '13 nM');
